Catalogue of total protein half-life in vivo readings, one per entry.
Assay: total protein half-life in vivo (active degradation + dilution); higher = more stable protein
Conditions: wild type E. coli NCM3722; growth: P-lim chemostat; doubling time 12 h
Your answer should be a plain number; it is taken to be in h.

SEQUENCE_DATA: MSKIRVLSVDDSALMRQIMTEIINSHSDMEMVATAPDPLVARDLIKKFNPDVLTLDVEMPRMDGLDFLEKLMRLRPMPVVMVSSLTGKGSEVTLRALELGAIDFVTKPQLGIREGMLAYNEMIAEKVRTAAKASLAAHKPLSAPTTLKAGPLLSSEKLIAIGASTGGTEAIRHVLQPLPLSSPALLITQHMPPGFTRSFADRLNKLCQIGVKEAEDGERVLPGHAYIAPGDRHMELSRSGANYQIKIHDGPAVNRHRPSVDVLFHSVAKQAGRNAVGVILTGMGNDGAAGMLAMRQAGAWTLAQNEASCVVFGMPREAINMGGVCEVVDLSQVSQQMLAKISAGQAIRI
UNIT_OF_MEASURE: h
total protein half-life in vivo: 9.95
//
SEQUENCE_DATA: MTIKNVICDIDGVLMHDNVAVPGAAEFLHGIMDKGLPLVLLTNYPSQTGQDLANRFATAGVDVPDSVFYTSAMATADFLRRQEGKKAYVVGEGALIHELYKAGFTITDVNPDFVIVGETRSYNWDMMHKAAYFVANGARFIATNPDTHGRGFYPACGALCAGIEKISGRKPFYVGKPSPWIIRAALNKMQAHSEETVIVGDNLRTDILAGFQAGLETILVLSGVSSLDDIDSMPFRPSWIYPSVAEIDVI [P0AF24]
UNIT_OF_MEASURE: h
total protein half-life in vivo: 10.4
//
SEQUENCE_DATA: MSDQQQPPVYKIALGIEYDGSKYYGWQRQNEVRSVQEKLEKALSQVANEPITVFCAGRTDAGVHGTGQVVHFETTALRKDAAWTLGVNANLPGDIAVRWVKTVPDDFHARFSATARRYRYIIYNHRLRPAVLSKGVTHFYEPLDAERMHRAAQCLLGENDFTSFRAVQCQSRTPWRNVMHINVTRHGPYVVVDIKANAFVHHMVRNIVGSLMEVGAHNQPESWIAELLAAKDRTLAAATAKAEGLYLVAVDYPDRYDLPKPPMGPLFLAD
UNIT_OF_MEASURE: h
total protein half-life in vivo: 11.6
//
SEQUENCE_DATA: MPLHNLTRFPRLEFIGAPTPLEYLPRFSDYLGREIFIKRDDVTPMAMGGNKLRKLEFLAADALREGADTLITAGAIQSNHVRQTAAVAAKLGLHCVALLENPIGTTAENYLTNGNRLLLDLFNTQIEMCDALTDPNAQLEELATRVEAQGFRPYVIPVGGSNALGALGYVESALEIAQQCEGAVNISSVVVASGSAGTHAGLAVGLEHLMPESELIGVTVSRSVADQLPKVVNLQQAIAKELELTASAEILLWDDYFAPGYGVPNDEGMEAVKLLARLEGILLDPVYTGKAMAGLIDGISQKRFKDEGPILFIHTGGAPALFAYHPHV
UNIT_OF_MEASURE: h
total protein half-life in vivo: 12.3

Please turn your attention to the following entry.
Supply total protein half-life in vivo value. Item: MKQPGEELQETLTELDDRAVVDYLIKNPEFFIRNARAVEAIRVPHPVRGTVSLVEWHMARARNHIHVLEENMALLMEQAIANEGLFYRLLYLQRSLTAASSLDDMLMRFHRWARDLGLAGASLRLFPDRWRLGAPSNHTHLALSRQSFEPLRIQRLGQEQHYLGPLNGPELLVVLPEAKAVGSVAMSMLGSDADLGVVLFTSRDASHYQQGQGTQLLHEIALMLPELLERWIERV
3.12
